Where do the numbers come from? From paper PMC5869772.

# measured.on: BATF3;JUNB (human;human, UniProt Q9NR55;P17275 1-127;148-347, |)
# Sequence 1: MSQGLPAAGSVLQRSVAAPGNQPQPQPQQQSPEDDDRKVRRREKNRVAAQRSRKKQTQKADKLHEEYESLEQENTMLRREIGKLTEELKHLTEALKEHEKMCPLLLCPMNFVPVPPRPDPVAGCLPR
# Sequence 2: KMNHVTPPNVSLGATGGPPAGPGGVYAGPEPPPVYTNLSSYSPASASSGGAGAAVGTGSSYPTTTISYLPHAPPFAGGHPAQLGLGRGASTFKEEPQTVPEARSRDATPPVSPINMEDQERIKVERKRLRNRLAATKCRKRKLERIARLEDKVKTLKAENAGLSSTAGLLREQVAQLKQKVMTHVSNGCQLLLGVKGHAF
# experiment.description: Spec-seq (EMSA and sequencing of bound and unbound bands); 100 nM BATFx-JUNB, 1 uM dsDNA library, 50 mM K acetate, 20 mM Tris-acetate, 10 mM Mg acetate, 100 ug/ml BSA, pH 7.9, 10% glycerol, 30 min on ice; native 9% PAGE at 4 C; low values mean tight binding
# applied.conditions: protein: recombinant;recombinant; tags: N-terminal mCherry-TEV, cleaved off;C-terminal 6His; copies: 1;1; dsDNA, one strand shown
measurement.name: binding signal (kT)

primary_sequence=GATAGTCTCATTTTCACCCCGTGAAATGACCCACTTGTTCCATTACAGTATCTGT measurement_name="binding signal" uom=kT meas_value=0.927
primary_sequence=GATAGTCTCATTTTCACCCCGTGAAATGAGTTAGTTGTTCCATTACAGTATCTGT measurement_name="binding signal" uom=kT meas_value=0.772
primary_sequence=GATAGTCTCATTTTCACCCCGTGAAATGACATCATTGTTCCATTACAGTATCTGT measurement_name="binding signal" uom=kT meas_value=-1.1
primary_sequence=GATAGTCTCATTTTCACCCCGTGAAATGAGTCCTTTGTTCCATTACAGTATCTGT measurement_name="binding signal" uom=kT meas_value=0.708
primary_sequence=GATAGTCTCATTTTCACCCCGTGAAATGACGTCATTGTTCCATTACAGTATCTGT measurement_name="binding signal" uom=kT meas_value=-1.75
primary_sequence=GATAGTCTCATTTTCACCCCGTGAAATGACGCAGTTGTTCCATTACAGTATCTGT measurement_name="binding signal" uom=kT meas_value=-0.216
primary_sequence=GATAGTCTCATTTTCACCCCGTGAAATGACTCCTTTGTTCCATTACAGTATCTGT measurement_name="binding signal" uom=kT meas_value=0.584
